Each entry below carries its reported phosphorylation enrichment.
ASSAYED_TARGET: MERTK (UniProt Q12866)
Sequence (Q12866 whole entry, looked up): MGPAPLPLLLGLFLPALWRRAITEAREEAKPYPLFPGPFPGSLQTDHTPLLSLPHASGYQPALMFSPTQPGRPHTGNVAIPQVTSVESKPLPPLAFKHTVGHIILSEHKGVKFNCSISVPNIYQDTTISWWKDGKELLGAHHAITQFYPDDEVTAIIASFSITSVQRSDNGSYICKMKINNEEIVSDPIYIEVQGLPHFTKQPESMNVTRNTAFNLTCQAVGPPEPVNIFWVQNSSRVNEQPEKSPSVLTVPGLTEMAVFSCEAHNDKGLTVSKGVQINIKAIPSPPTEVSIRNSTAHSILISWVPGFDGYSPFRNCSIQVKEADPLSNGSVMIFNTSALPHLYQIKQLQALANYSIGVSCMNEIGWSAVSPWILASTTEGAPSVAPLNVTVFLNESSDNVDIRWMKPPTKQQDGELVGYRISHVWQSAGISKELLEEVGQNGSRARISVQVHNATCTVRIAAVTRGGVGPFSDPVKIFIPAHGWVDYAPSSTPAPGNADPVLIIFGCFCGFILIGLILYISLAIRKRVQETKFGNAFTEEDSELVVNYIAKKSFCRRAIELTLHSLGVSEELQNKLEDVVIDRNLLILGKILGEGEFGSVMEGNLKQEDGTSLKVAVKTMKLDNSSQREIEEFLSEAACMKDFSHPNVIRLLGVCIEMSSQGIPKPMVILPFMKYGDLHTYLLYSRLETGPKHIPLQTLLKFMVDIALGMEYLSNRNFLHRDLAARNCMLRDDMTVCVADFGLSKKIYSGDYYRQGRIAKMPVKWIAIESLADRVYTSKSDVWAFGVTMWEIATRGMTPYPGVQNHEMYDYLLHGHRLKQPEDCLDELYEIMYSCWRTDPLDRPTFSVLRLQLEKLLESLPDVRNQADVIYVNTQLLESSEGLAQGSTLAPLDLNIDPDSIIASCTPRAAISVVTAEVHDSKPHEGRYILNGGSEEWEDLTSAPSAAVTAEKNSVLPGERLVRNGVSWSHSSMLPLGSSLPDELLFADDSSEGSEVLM
ASSAY_SUMMARY: phosphorylation enrichment, bacterial display (enrichment ratio); higher = better substrate or ligand; peptides without Tyr show the background;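 further: 11-residue human phosphosite peptides and single-mutation variants displayed on the E. coli surface, counted by deep sequencing, each peptide's frequency after selection divided by its frequency in the unselected input library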;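 further: frequency after pTyr selection over input frequency; kinase dosed for 20-30% of maximal phosphorylation in three min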

SEQUENCE_STRING: SIRFNYLLDVL [FGFR4_Y237_YF]
MEASUREMENT_KIND: phosphorylation enrichment
RESULT: 0.387

SEQUENCE_STRING: ALCHFYKLNII [ETV6_Y402_R399C_YF]
MEASUREMENT_KIND: phosphorylation enrichment
RESULT: 0.499

SEQUENCE_STRING: VIGRMYDFHVL [RPF2_Y109_YF]
MEASUREMENT_KIND: phosphorylation enrichment
RESULT: 3.11

Prompt: For the sequence shown here, IVLRSYPASGH [NID2_Y449] , give the reported phosphorylation enrichment.
Response: 0.493

Prompt: One more sequence: PEFVVYKPQME [CCRL2_Y170]
Response: 0.972

Prompt: One more sequence: FTFDPYSEEEP [IL2RB_Y387_D391E_YF]
Response: 0.469

Prompt: One more sequence: DPHKIYEFVNS [IRF3_Y107]
Response: 10.3
